biological target: Oxysterols receptor LXR-beta (Homo sapiens, UniProt P55055); experiment: Agonist activity at LXRbeta (unknown origin) by Gal4-Luc reporter gene assay
Sequence (P55055 whole entry, the tested form may be a part): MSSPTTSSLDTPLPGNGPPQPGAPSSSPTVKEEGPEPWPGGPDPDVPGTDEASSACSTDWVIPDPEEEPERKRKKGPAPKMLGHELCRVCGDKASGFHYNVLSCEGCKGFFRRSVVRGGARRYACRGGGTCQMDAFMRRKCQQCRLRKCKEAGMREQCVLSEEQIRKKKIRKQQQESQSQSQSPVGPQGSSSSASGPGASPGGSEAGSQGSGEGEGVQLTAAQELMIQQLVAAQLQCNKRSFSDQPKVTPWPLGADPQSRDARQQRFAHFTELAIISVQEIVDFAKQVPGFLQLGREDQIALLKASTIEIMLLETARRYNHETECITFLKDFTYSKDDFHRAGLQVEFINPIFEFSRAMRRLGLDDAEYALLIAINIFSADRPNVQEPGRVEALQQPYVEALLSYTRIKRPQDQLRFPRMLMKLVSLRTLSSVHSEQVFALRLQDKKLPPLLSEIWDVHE
Readout Type: EC50

O=C(N1CC[C@@]2(S(=O)(=O)c3ccc(F)cc3)c3ccc(C(F)(C(F)(F)F)C(F)(F)F)cc3CC[C@@H]12)C1(O)CCS(=O)(=O)CC1 > 7.5 µM

---

Recorded fraction unbound by entry
assay: Unbound fraction in human serum; format: ADME, cell-free
Readout Type: fraction unbound

CCCN1C[C@H]2N(C(=O)[C@H]3CC[C@H](C(=O)O)CC3)CC[C@@]2(S(=O)(=O)c2ccc(F)cc2)c2ccc(C(F)(C(F)(F)F)C(F)(F)F)cc21 0.002
O=C(O)[C@H]1CC[C@H](C(=O)N2CC[C@@]3(S(=O)(=O)c4ccc(F)cc4)c4ccc(C(F)(C(F)(F)F)C(F)(F)F)cc4OC[C@@H]23)CC1 0.003
O=C(O)[C@H]1CC[C@H](C(=O)N2CC[C@@]3(S(=O)(=O)c4ccc(F)cc4)c4ccc(C(F)(C(F)(F)F)C(F)(F)F)cc4NC[C@@H]23)CC1 0.014
CN1C[C@H]2N(C(=O)C3(O)CCS(=O)(=O)CC3)CC[C@@]2(S(=O)(=O)c2ccc(F)cc2)c2ccc(C(F)(C(F)(F)F)C(F)(F)F)cc21 0.003
O=C(N1CC[C@@]2(S(=O)(=O)c3ccc(F)cc3)c3ccc(C(F)(C(F)(F)F)C(F)(F)F)cc3NC[C@@H]12)C1(O)CCS(=O)(=O)CC1 0.006
O=C(N1CC[C@@]2(S(=O)(=O)c3ccc(F)cc3)c3ccc(C(F)(C(F)(F)F)C(F)(F)F)cc3CC[C@@H]12)C1(O)CCS(=O)(=O)CC1 0.011
CCN1C[C@H]2N(C(=O)[C@H]3CC[C@H](C(=O)O)CC3)CC[C@@]2(S(=O)(=O)c2ccc(F)cc2)c2ccc(C(F)(C(F)(F)F)C(F)(F)F)cc21 0.005
CN1C[C@H]2N(C(=O)[C@H]3CC[C@H](C(=O)O)CC3)CC[C@@]2(S(=O)(=O)c2ccc(F)cc2)c2ccc(C(F)(C(F)(F)F)C(F)(F)F)cc21 0.024

---

molecular target: UniProt P10632; test: Inhibition of recombinant CYP2C8 (unknown origin)
Sequence (P10632 whole entry): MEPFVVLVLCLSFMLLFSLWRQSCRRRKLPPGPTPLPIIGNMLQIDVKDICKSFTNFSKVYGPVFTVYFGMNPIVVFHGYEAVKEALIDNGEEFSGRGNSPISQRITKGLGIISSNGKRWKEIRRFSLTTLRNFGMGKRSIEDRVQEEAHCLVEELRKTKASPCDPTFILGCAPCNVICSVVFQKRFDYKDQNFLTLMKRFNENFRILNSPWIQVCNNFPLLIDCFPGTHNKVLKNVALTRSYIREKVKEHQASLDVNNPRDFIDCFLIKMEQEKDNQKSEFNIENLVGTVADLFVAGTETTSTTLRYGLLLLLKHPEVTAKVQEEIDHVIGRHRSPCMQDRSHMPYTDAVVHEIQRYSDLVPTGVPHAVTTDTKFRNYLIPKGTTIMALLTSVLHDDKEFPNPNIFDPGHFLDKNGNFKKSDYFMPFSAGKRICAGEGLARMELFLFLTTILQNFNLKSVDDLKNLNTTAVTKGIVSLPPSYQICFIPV
Readout Type: IC50 (µM)

O=C(N1CC[C@@]2(S(=O)(=O)c3ccc(F)cc3)c3ccc(C(F)(C(F)(F)F)C(F)(F)F)cc3CC[C@@H]12)C1(O)CCS(=O)(=O)CC1 15

---

test: Half life in rat liver microsomes; format: ADME, Microsome
Recorded half-life by entry
Readout Type: half-life (h)

CN1C[C@H]2N(C(=O)C3(O)CCS(=O)(=O)CC3)CC[C@@]2(S(=O)(=O)c2ccc(F)cc2)c2ccc(C(F)(C(F)(F)F)C(F)(F)F)cc21 1.4
CCCN1C[C@H]2N(C(=O)[C@H]3CC[C@H](C(=O)O)CC3)CC[C@@]2(S(=O)(=O)c2ccc(F)cc2)c2ccc(C(F)(C(F)(F)F)C(F)(F)F)cc21 1.77
O=C(N1CC[C@@]2(S(=O)(=O)c3ccc(F)cc3)c3ccc(C(F)(C(F)(F)F)C(F)(F)F)cc3OC[C@@H]12)C1(O)CCS(=O)(=O)CC1 1.58
O=C(C1CCS(=O)(=O)CC1)N1CC[C@@]2(S(=O)(=O)c3ccc(F)cc3)c3ccc(C(F)(C(F)(F)F)C(F)(F)F)cc3CC[C@@H]12 1.1
C[C@]1(C(=O)O)CC[C@H](C(=O)N2CC[C@@]3(S(=O)(=O)c4ccc(F)cc4)c4ccc(C(F)(C(F)(F)F)C(F)(F)F)cc4CC[C@@H]23)CC1 1.73
C[C@]1(C(=O)N2CC[C@@]3(S(=O)(=O)c4ccc(F)cc4)c4ccc(C(F)(C(F)(F)F)C(F)(F)F)cc4CC[C@@H]23)CC[C@H](C(=O)O)CC1 1.78
Cc1ccc(S(=O)(=O)[C@@]23CCN(C(=O)[C@H]4CC[C@H](C(=O)O)CC4)[C@@H]2CCc2cc(C(F)(C(F)(F)F)C(F)(F)F)ccc23)cc1 1.02
CC(=O)N1CCC(C(=O)N2CC[C@@]3(S(=O)(=O)c4ccc(F)cc4)c4ccc(C(F)(C(F)(F)F)C(F)(F)F)cc4CC[C@@H]23)CC1 0.817
Cc1cccc(S(=O)(=O)[C@@]23CCN(C(=O)[C@H]4CC[C@H](C(=O)O)CC4)[C@@H]2CCc2cc(C(F)(C(F)(F)F)C(F)(F)F)ccc23)c1 0.417
